System: Bacillus subtilis
test-summary: cleaved RNA product abundance (RNA/gDNA barcode ratio) relative to median wild-type variant (ratio to wild type); higher = more accumulation of the downstream cleavage product
condition-description: experiment (reporter, strain, medium): exp 8a: truncated aprE reporter, strain BJT201 with 2% xylose (RNase J1 expressed); cleavage site: glnRA (positions -5 to +31 mutated)
# Lookup of reported cleaved RNA product abundance keyed by entry

CGACATGTCCCGCTTCTTTCATTATTCCGTTAGCAACTGTTTTGCTATATAAATTTACCTTTTAAGAGGAGGAAT | 0.753
CGACATGTCCCGCTTCTTTCATTAATCCGATAGCAACTGTTTTGCTATATACATCTACCTTTTAAGAGGAGGAAT | 0.88
CGACATGTCCCGCTTCTTTCATTAATCCGTTAGCAACTATTTTGCCATATACATTTACCTTTTAAGAGGAGGAAT | 0.121
CGACATGTCCCGCTTCTTTCATTATTCCGTTAACAACAGTTTTGCTATATACATTTACCTTTTAAGAGGAGGAAT | 0.271
CGACATGTCCCGCTTCTTTCATTAATCCGTTAGCAACTGTTTTGCAATATACATTTACCATTTAAGAGGAGGAAT | 0.562
CGACATGTCCCGCTTCTTTCATTAATCCGGTAACAACTGTTTTGCTATATACATTTACCTTTTAAGAGGAGGAAT | 0.34

Lab note: next sequence to report on.
Please report the measured cleaved RNA product abundance for CGACATGTCCCGCTTCTTTCATTATTCCGTTAGCAACTGTTTTGCTACATACATTTACCTTTTAAGAGGAGGAAT
0.626
